List of pIC50 tested on UniProtKB Q12809.
Sequence (Q12809 whole entry): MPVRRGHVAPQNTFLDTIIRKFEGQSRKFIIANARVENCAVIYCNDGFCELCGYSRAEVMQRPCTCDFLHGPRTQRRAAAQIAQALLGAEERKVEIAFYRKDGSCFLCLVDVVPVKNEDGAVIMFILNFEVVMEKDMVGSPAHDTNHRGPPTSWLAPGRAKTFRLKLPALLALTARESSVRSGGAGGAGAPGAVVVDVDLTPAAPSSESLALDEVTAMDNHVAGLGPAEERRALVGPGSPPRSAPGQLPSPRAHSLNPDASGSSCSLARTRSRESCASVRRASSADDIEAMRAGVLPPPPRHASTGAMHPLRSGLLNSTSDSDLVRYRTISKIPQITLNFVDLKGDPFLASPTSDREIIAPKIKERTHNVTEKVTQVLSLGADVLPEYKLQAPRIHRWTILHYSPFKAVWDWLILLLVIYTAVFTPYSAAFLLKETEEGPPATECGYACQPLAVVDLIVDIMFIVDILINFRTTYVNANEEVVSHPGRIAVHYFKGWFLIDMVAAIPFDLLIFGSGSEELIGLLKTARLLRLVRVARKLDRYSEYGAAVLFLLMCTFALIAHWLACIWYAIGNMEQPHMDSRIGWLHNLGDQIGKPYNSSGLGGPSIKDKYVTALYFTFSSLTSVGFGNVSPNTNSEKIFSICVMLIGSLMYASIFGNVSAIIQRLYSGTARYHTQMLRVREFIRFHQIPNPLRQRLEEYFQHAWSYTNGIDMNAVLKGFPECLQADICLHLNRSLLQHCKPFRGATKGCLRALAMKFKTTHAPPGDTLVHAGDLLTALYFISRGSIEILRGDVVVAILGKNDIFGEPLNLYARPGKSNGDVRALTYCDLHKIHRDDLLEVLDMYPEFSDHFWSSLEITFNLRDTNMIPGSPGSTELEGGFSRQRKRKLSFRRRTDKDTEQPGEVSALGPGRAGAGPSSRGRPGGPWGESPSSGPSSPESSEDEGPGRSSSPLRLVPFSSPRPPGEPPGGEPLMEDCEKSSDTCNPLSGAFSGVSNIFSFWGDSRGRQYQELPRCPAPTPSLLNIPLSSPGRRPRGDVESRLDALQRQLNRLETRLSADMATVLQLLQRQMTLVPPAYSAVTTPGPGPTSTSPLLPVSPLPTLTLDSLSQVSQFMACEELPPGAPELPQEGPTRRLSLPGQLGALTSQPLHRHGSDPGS
Answer as the number alone; pIC50 is minus log10 of concentration in mol/L.

(Q) For the compound `CCN(CC)CCNC(=O)c1ccnc(-c2cnn3ccc(-c4cccs4)nc23)c1` , give its reported pIC50.
(A) 5.93

(Q) Return pIC50 (reported value) for this compound: `CCc1cc(C(=O)NC[C@H](C)N(CC)CC)cc(-c2cnn3ccc(-c4cccs4)nc23)n1`
(A) 5.48

Further cases:
(Q) Please report pIC50 for the following compound: `CCN(CC)[C@@H](C)CNC(=O)c1ccnc(-c2cnn3ccc(-c4cccs4)nc23)c1`
(A) 6.14

----------
# assay procedure: Volume of distribution at steady state in rat at 1 mg/kg, iv
# Format: ADME, organism-based
# experimental context: in vivo, read-out: Vdss
readout: Vd (L/kg)
Express the result in L/kg but write the number alone.

(Q) Tell me Vd reported for `CCN(CC)[C@@H](C)CNC(=O)c1cc(-c2cnn3ccc(-c4cccs4)nc23)nc(N2CC(O)C2)c1`
(A) 22.1

Next compound, Vd to be filled in.
(Q) Return Vd for the following compound: `CCN(CC)[C@@H](C)CNC(=O)c1cc(-c2cnn3ccc(-c4cccs4)nc23)nc(N2CC(OC)C2)c1`
(A) 7.34

----------
# assay procedure: Half life in human liver microsomes
# Assay type: ADME, microsome
Measured half-life of individual entries

(Q) # return recorded half-life for input `CCN(CC)[C@@H](C)CNC(=O)c1cc(-c2cnn3ccc(-c4cccs4)nc23)nc(N2CC(OC)C2)c1`
(A) 1.03 h

Now examine the next entry.
(Q) # return recorded half-life for input `CCN(CC)[C@@H](C)CNC(=O)c1cc(-c2cnn3ccc(-c4cccs4)nc23)nc(N2CC(O)C2)c1`
(A) 0.967 h

----------
# assay procedure: Unbound plasma concentration in dog
# Format: ADME, organism-based, Canis lupus familiaris
readout: fraction unbound

(Q) Fill in reported fraction unbound for this entry: `CCN(CC)[C@@H](C)CNC(=O)c1cc(-c2cnn3ccc(-c4cccs4)nc23)nc(N2CC(O)C2)c1`
(A) 0.291

Proceed to the following item.
(Q) Return fraction unbound for the following compound: `CCN(CC)[C@@H](C)CNC(=O)c1cc(-c2cnn3ccc(-c4cccs4)nc23)nc(N2CC(OC)C2)c1`
(A) 0.159

----------
Listed below: half-life values for each entry.
# assay procedure: Half life in rat liver microsomes
# Format: ADME, microsome
State the answer as a number, implicitly in min.

(Q) Annotate the molecule `CCN(CC)[C@@H](C)CNC(=O)c1cc(-c2cnn3ccc(-c4cccs4)nc23)nc(N2CC(O)C2)c1` with its measured half-life.
(A) 48

Consider the record given below.
(Q) Note half-life for the molecule shown: `CCN(CC)[C@@H](C)CNC(=O)c1cc(-c2cnn3ccc(-c4cccs4)nc23)nc(N2CC(OC)C2)c1`
(A) 61

----------
# tested on: Cytochrome P450 3A4 (Homo sapiens)
# Sequence (P08684 whole entry): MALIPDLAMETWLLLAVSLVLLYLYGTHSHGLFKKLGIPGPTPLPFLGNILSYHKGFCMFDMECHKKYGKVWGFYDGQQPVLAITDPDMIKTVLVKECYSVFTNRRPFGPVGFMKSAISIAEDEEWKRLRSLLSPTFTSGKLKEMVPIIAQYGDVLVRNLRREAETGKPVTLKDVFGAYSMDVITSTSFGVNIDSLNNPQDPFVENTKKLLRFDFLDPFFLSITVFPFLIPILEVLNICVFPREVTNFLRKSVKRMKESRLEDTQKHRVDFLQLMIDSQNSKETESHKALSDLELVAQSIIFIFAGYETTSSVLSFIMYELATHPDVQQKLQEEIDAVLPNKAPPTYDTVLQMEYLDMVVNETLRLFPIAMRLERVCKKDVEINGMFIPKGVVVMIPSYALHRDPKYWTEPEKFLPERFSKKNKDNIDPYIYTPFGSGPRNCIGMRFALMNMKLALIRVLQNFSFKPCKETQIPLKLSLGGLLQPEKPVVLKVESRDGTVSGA
readout: IC50

(Q) Return value of IC50 for input `CCN(CC)[C@@H](C)CNC(=O)c1cc(-c2cnn3ccc(-c4cccs4)nc23)nc(N2CC(OC)C2)c1` , no commentary.
(A) > 25 µM

----------
# assay procedure: Half life in dog liver microsomes
# Format: ADME, Canis lupus familiaris, microsome
readout: half-life (min)
The answer is to be given in min; state only the numeric part.

(Q) Kindly indicate its recorded half-life. Item: `CCN(CC)[C@@H](C)CNC(=O)c1cc(-c2cnn3ccc(-c4cccs4)nc23)nc(N2CC(O)C2)c1`
(A) 27

We next turn to a different compound, shown below.
(Q) For the compound `CCN(CC)[C@@H](C)CNC(=O)c1cc(-c2cnn3ccc(-c4cccs4)nc23)nc(N2CC(OC)C2)c1` , give its reported half-life.
(A) 43

----------
# tested on: Cytochrome P450 1A2 (Homo sapiens)
# Sequence (P05177 whole entry): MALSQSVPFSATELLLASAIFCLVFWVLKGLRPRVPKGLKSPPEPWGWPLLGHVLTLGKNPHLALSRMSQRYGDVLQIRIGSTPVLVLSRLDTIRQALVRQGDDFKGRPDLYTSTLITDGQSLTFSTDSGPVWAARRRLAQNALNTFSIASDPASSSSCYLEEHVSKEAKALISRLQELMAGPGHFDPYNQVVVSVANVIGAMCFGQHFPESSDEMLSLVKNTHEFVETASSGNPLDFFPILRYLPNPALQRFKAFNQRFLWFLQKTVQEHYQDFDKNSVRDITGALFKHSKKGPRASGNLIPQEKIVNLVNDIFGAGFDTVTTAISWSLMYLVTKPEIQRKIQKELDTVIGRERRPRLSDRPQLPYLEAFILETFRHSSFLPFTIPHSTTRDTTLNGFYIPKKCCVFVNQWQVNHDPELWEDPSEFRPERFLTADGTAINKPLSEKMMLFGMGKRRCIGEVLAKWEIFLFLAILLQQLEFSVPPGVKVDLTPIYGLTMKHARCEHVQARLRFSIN
readout: IC50

(Q) Retrieve IC50 measured for `CCN(CC)[C@@H](C)CNC(=O)c1cc(-c2cnn3ccc(-c4cccs4)nc23)nc(N2CC(OC)C2)c1` and print it.
(A) > 25 µM

----------
# assay procedure: Half life in rat at 1 mg/kg, iv
# Assay type: ADME, organism-based
# experimental context: in vivo
readout: half-life (h)
Entry rule: numbers only, all in h.

(Q) Give reported half-life value for `CCN(CC)[C@@H](C)CNC(=O)c1cc(-c2cnn3ccc(-c4cccs4)nc23)nc(N2CC(OC)C2)c1`
(A) 4.3

Next:
(Q) Give the value of half-life reported for the following: `CCN(CC)[C@@H](C)CNC(=O)c1cc(-c2cnn3ccc(-c4cccs4)nc23)nc(N2CC(O)C2)c1`
(A) 5.89

----------
Quick reference: pEC50 of the listed items.
# tested on: CaM kinase II delta/gamma (Rattus norvegicus, UniProt P11730+P15791)
# Sequence (P15791 whole entry): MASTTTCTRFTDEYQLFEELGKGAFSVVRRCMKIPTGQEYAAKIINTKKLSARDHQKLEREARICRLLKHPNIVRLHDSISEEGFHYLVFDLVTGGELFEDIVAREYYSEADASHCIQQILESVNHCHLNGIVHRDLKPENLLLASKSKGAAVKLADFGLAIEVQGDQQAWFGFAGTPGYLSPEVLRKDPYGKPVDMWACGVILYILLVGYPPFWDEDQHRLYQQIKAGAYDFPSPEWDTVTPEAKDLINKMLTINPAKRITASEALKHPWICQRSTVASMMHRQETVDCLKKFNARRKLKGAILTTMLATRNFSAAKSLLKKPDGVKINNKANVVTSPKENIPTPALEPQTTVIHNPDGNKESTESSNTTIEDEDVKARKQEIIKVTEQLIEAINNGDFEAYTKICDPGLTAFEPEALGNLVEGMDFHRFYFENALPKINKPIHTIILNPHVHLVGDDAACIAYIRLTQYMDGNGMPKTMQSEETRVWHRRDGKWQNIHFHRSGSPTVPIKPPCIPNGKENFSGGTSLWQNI
# Sequence (P11730 whole entry): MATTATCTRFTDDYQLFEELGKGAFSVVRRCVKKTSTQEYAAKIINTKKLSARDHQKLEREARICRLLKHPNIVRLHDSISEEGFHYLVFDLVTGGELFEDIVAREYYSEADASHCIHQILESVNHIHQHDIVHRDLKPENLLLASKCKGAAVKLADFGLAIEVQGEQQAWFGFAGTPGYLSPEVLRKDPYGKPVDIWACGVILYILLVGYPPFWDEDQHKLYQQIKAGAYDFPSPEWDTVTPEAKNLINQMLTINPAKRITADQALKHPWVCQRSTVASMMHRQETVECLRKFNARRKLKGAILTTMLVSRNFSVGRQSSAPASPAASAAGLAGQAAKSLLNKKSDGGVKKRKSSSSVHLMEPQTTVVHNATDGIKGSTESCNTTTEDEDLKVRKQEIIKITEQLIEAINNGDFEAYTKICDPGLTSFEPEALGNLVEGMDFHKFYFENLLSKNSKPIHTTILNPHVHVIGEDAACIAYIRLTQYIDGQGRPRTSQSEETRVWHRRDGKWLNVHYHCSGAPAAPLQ
# assay procedure: Inhibition of CaMK2gamma/delta in neonatal rat ventricular myocytes assessed as phospholamban phosphorylation after 4 hrs by Hoechst 33342 fluorescence based assay
# pEC50 is unitless: minus log10 of the molar concentration; print number only

(Q) Tell me its pEC50 given `CCN(CC)[C@@H](C)CNC(=O)c1cc(-c2cnn3ccc(-c4cccs4)nc23)nc(N2CC(O)C2)c1` as the entry.
(A) 8.21

Next:
(Q) For the compound `CCN(CC)[C@@H](C)CNC(=O)c1cc(-c2cnn3ccc(-c4cccs4)nc23)nc(N2CC(OC)C2)c1` , report pEC50.
(A) 8.13

----------
# assay procedure: Thermodynamic aqueous solubility of the compound in pH 2.2
# Type: physicochemical
# experimental context: buffer, read-out: Therm_solubility
readout: solubility thermodynamic (mg/mL)
The answer is to be given in mg/mL; state only the numeric part.

(Q) Quote solubility thermodynamic reported for `CCN(CC)[C@@H](C)CNC(=O)c1cc(-c2cnn3ccc(-c4cccs4)nc23)nc(N2CC(O)C2)c1` please.
(A) 15

----------
# tested on: Cytochrome P450 2D6 (Homo sapiens, UniProt P10635)
# Sequence (P10635 whole entry): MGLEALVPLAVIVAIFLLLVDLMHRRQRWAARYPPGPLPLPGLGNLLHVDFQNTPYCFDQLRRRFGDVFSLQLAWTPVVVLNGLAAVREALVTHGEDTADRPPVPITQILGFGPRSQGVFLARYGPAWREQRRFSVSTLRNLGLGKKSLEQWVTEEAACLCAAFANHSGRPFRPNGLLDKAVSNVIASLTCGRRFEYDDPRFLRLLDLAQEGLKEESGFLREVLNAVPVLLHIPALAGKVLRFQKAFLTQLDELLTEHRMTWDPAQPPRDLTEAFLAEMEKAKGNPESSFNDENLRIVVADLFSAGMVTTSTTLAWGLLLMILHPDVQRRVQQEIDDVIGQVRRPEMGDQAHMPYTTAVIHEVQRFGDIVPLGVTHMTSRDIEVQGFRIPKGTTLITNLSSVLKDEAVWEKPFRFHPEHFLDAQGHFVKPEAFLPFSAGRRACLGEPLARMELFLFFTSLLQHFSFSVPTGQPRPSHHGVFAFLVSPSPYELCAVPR
readout: IC50

(Q) Provide only the value of recorded IC50 for `CCN(CC)[C@@H](C)CNC(=O)c1cc(-c2cnn3ccc(-c4cccs4)nc23)nc(N2CC(OC)C2)c1`
(A) > 25 µM
